- Tested on: Plasmodium berghei
- experiment-description: Luciferase/luciferin-expressing antifolate-resistant parasites were used to infect a culture of HepG2 cells that were pre-incubated with compounds. Infected hepatocytes emit light due to the luciferase reaction. Assay results are presented as the percent inhibition of light emission compared to control. […]
- Type: functional
- condition-context: sporozoite, FFLUC_HILL_SLOPE 3.59, FFLUC_R_SQUARED 0.192, PBLUC_HILL_SLOPE 1.6, PBLUC_R_SQUARED 0.527, read-out: LUCIFERASE INFECTION ASSAY - IC50

chemical-smiles: CNC(=O)c1ccc(CN(C2CC2)S(=O)(=O)c2cc([N+](=O)[O-])cc(C)c2C)cc1
unit-symbol: µM
IC50: 5.04
